Measured on: Focal adhesion kinase 1 (Homo sapiens) (UniProt Q05397)
Sequence (Q05397 whole entry, looked up): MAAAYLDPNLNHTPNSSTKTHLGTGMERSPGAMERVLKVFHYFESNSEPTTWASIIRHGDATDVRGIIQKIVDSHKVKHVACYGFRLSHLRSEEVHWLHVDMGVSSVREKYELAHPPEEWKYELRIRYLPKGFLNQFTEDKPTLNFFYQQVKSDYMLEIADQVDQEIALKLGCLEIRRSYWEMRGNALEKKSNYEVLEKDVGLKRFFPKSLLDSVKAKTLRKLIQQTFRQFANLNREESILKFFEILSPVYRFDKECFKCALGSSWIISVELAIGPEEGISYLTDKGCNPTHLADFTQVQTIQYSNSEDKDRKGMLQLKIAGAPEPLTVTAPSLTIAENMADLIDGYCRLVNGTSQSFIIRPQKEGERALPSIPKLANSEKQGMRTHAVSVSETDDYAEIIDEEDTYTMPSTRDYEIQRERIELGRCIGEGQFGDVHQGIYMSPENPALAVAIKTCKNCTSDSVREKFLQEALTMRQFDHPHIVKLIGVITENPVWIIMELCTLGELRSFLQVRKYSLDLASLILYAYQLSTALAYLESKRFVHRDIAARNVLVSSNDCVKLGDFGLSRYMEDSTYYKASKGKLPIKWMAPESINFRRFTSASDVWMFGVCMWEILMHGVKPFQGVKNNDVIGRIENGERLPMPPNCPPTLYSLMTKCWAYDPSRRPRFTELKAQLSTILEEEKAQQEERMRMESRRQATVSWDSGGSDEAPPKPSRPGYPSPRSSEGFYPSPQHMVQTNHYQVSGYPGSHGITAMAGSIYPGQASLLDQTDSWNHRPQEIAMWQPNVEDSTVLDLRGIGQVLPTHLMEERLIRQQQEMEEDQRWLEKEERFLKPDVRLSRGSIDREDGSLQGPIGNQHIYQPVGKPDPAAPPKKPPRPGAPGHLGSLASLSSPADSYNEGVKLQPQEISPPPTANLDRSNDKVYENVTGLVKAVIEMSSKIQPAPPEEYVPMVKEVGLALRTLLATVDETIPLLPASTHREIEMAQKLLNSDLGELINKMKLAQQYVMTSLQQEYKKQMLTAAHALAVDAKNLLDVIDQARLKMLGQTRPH
Test method notes: small-molecule microarray binders of FAK, primary screen, biochemical, 635/667 nm fluorescence, BSA, DTT (AID 1130);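 further: composite of spot emission at 667 nm and signal to noise over triplicate slides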
Setup conditions: PTK2 binding, 635 nm fluorescence, higher = more signal
So I've got a bunch of compounds here, and I need their composite z-score values.
Numbers only.

Record excerpt, results attached:
Compound	Measured metric	Observed measurement
CCOC(=O)C[C@H]1[C@H](OC(=O)c2ccccc2-c2ccccc2)[C@@H](NC(=O)Cc2ccc(OC)cc2)c2cc(OCCCO)ccc2N1C(=O)c1ccccc1	composite z-score	0.145
COc1cccc(C(=O)O[C@H]2CC[C@]3(C)C4=C(CCC3C2(C)C)[C@]2(C)CC[C@H]([C@H](C)CCCC(C)C)[C@@]2(C)CC4)c1 (stereo partly drawn)	composite z-score	-0.404

Attention now turns to another entry.
Kindly note: Focal adhesion kinase 1 (Homo sapiens) (UniProt Q05397), "COCCOC(=O)N1C(=O)[C@@]2(c3cc(C#CCNC(N)=O)ccc31)[C@H](C(=O)N1CCc3cc(OC)c(OC)cc3C1)[C@H]1C(=O)O[C@H](c3ccccc3)[C@H](c3ccccc3)N1[C@@H]2c1ccc(OCCO)cc1" , composite z-score value reported: -0.0354

###

So I've got a bunch of compounds here, and I need their z-score values.
Test method notes: P. aeruginosa biofilm formation inhibitors, primary screen, strain PAO1, LB-PBS medium, absorbance 600 nm (AID 1176); further: test concentration not given here
Setup conditions: P. aeruginosa PAO1 growth/biofilm, A600, 12 h; higher = more signal
Numbers only.

Consider the following items and state reported z-score for each.
1. C=CCOC(=O)[C@H]1[C@@H]2C(=O)O[C@@H](c3ccccc3)[C@@H](c3ccccc3)N2[C@@H](c2ccc(OCCOC(=O)[C@@H]3C[C@@H]4C(=O)NCC(=O)N4[C@@H]3c3ccc(O)cc3)cc2)[C@]12C(=O)Nc1ccccc12
2. CCCCC=C[C@@H](NC(=O)c1ccc(C(=O)OC)cc1)c1ccccc1
3. N#Cc1ccc(NN2C(C(O)c3ccc([N+](=O)[O-])cc3)C=CC3C(=O)N(c4ccccc4)C(=O)C32)cc1 (configuration not stated)
4. CCCNC(=O)[C@@]1(c2ccc([N+](=O)[O-])cc2)CC(=O)N(CC23CC4CC(CC(C4)C2)C3)[C@@H]1c1ccc(CO)cc1
5. CN1C(=O)C2C(C1=O)C1C=C(CCCO)C2C(c2cccs2)N1C (configuration not stated)
6. COCCOC(=O)N1C(=O)[C@@]2(c3cc(C#CCC(C(=O)OC)C(=O)OC)ccc31)[C@H](c1ccccc1OCCO)N1[C@H](c3ccccc3)[C@H](c3ccccc3)OC(=O)[C@H]1[C@@H]2C(=O)N1CCc2cc(OC)c(OC)cc2C1
7. COCCCNC(=O)[C@@]1(CCC(=O)OC(C)(C)C)N=C(c2ccc(OCCCO)cc2)O[C@H]1c1ccccc1CN=[N+]=[N-]

Return:
1. 2.05
2. -0.567
3. 1.23
4. 0.416
5. -0.146
6. 1.45
7. -0.167

###

System: Chordin-like protein 2 (CHRDL2)
Test method notes: CHRDL2 small-molecule binders, primary screen, biochemical, small-molecule microarray, 635 nm fluorescence (AID 1126);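 further: printed compound slides probed with Chrdl2 protein at 4 µg/mL for 1 h at 4 C; score merges 667 nm emission intensity with signal to noise over three replicate slides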
Setup conditions: small-molecule microarray binding, fluorescence 635 nm; higher = more signal
Where composite z-score equals or exceeds 0.3, the correct label is Yes; where it does not, the label is No.

Example results:
Compound	Measured on	Assigned label
CC(=O)C1=CCC(c2ccccc2)N(S(=O)(=O)c2ccc(C)cc2)C1 (stereo not given)	Chordin-like protein 2 (CHRDL2)	Yes
O=C(O)[C@H]1C[C@H]2C(=O)NCC(=O)N2[C@H]1c1ccc(O)cc1	Chordin-like protein 2 (CHRDL2)	Yes
COC(=O)c1ccc(OC)c(/C=C\CC(OC(C)=O)c2ccccc2)c1 (stereo not given)	Chordin-like protein 2 (CHRDL2)	Yes
O=C1O[C@@H](c2ccccc2)[C@@H](c2ccccc2)N2[C@@H](c3ccc(O)cc3)[C@]3(C(=O)Nc4ccc(C#CC5=CCCCC5)cc43)[C@@H](C(=O)O)[C@H]12	Chordin-like protein 2 (CHRDL2)	No
COc1ccc(C#Cc2ccc3c(c2)[C@]2(C(=O)N3)[C@H](c3ccc(O)cc3)N3[C@H](c4ccccc4)[C@H](c4ccccc4)OC(=O)[C@H]3[C@@H]2C(=O)N2CCCCCCC2)cc1	Chordin-like protein 2 (CHRDL2)	Yes

Enquiry: Kindly determine if composite z-score recorded for "Cc1c(NC(=O)CC#N)c(=O)n(-c2ccccc2)n1C" is above or exactly 0.3.
Return: Yes

Enquiry: Kindly determine if composite z-score recorded for "O=C1N(CCS(=O)(=O)c2ccccc2)c2ccccc2C[C@@]12COC(c1ccc(OCCCO)cc1)=N2" is above or exactly 0.3.
Return: Yes

Enquiry: Kindly determine if composite z-score recorded for COc1ccc(NN2C(C(O)c3ccc(OC)c(OCc4ccccc4)c3)C=CC3C(=O)N(C4CCCCC4)C(=O)C32)cc1 (stereo not given) is above or exactly 0.3.
Return: No

Enquiry: Kindly determine if composite z-score recorded for CCCCCCCCCCC(O)C1C=CC2C(=O)N(Cc3ccccc3)C(=O)C2N1n1cnnc1 (stereo not given) is above or exactly 0.3.
Return: No

Enquiry: Kindly determine if composite z-score recorded for "Cc1ccc(S[C@]2(C(=O)O)CC(=O)N(C3Cc4ccccc4C3)[C@@H]2c2ccc(CO)cc2I)cc1" is above or exactly 0.3.
Return: No

Enquiry: Kindly determine if composite z-score recorded for "CO[C@H]1O[C@H](CO)[C@@H](OC(=O)Nc2ccc3c(c2)OCO3)[C@H](OC(=O)Nc2ccccc2)[C@H]1OC(=O)Nc1ccccc1" is above or exactly 0.3.
Return: No

Enquiry: Kindly determine if composite z-score recorded for "C=CCNC(=O)[C@H]1[C@@H]2C(=O)O[C@@H](c3ccccc3)[C@@H](c3ccccc3)N2[C@@H](c2ccc(O)cc2)[C@]12C(=O)N(C(=O)OCCOC)c1ccc(C#CCCO)cc12" is above or exactly 0.3.
Return: No

Enquiry: Kindly determine if composite z-score recorded for "CC(C)Cc1ccc(CN2CC[C@@H](NS(=O)(=O)c3ccccc3)C2)cc1" is above or exactly 0.3.
Return: Yes

Enquiry: Kindly determine if composite z-score recorded for O=C1OCCC=C[C@H]2OC34C=CCN(Cc5ccccc5)C(=O)[C@H]3N(CCCCCO)C(=O)[C@@H]4C12 (stereo not given in full) is above or exactly 0.3.
Return: No

Enquiry: Kindly determine if composite z-score recorded for "COCC1=C2[C@@H](CCc3ccccc3)OB(O)C[C@@H]2[C@@H]2C(=O)N(Cc3ccccc3)C(=O)[C@@H]2C1" is above or exactly 0.3.
Return: No

Enquiry: Kindly determine if composite z-score recorded for COC(=O)C1=CC(CCCO)=CC(C2CC2)N(Cc2sc3ccccc3c2Cl)C=C1C(=O)OC (stereo not given) is above or exactly 0.3.
Return: No

Enquiry: Kindly determine if composite z-score recorded for "CC(C)N1C(=O)[C@@]2(c3ccc([N+](=O)[O-])cc3)CC(=O)N(CC34CC5CC(CC(C5)C3)C4)[C@@H]2c2ccc(CO)cc21" is above or exactly 0.3.
Return: No

Enquiry: Kindly determine if composite z-score recorded for N#Cc1ccc(NN2C(C(O)c3ccc([N+](=O)[O-])cc3)C=CC3C(=O)N(c4ccccc4)C(=O)C32)cc1 (stereo not given) is above or exactly 0.3.
Return: No

Enquiry: Kindly determine if composite z-score recorded for "COC(=O)[C@@]1(Cc2ccc(OC)cc2)[C@H]2c3cc(C(=O)N4CCCC4)n(CCc4c[nH]c5cc(F)ccc45)c3C[C@H]2CN1C(=O)c1ccccc1" is above or exactly 0.3.
Return: No

Enquiry: Kindly determine if composite z-score recorded for "COCCOC(=O)N1C(=O)[C@@]2(c3cc(C#CCNC(N)=O)ccc31)[C@H](c1ccc(OCCO)cc1)N1[C@H](c3ccccc3)[C@H](c3ccccc3)OC(=O)[C@H]1[C@@H]2C(=O)N1CCc2cc(OC)c(OC)cc2C1" is above or exactly 0.3.
Return: Yes

Enquiry: Kindly determine if composite z-score recorded for CCOC(=O)C1=CCC(c2ccc(C#N)cc2)N(S(=O)(=O)c2ccc(C)cc2)C1 (stereo not given) is above or exactly 0.3.
Return: No

###

So I've got a bunch of compounds here, and I need their z-score values.
Test method notes: A549 cell viability effects, profiling panel, calcein-AM fluorescence, 48 h, basal (AID 1162); further: test concentration not given here
Setup conditions: higher = more signal
Answers are plain numbers.

Compound	z-score
NCCCCCCNC(=O)[C@H]1C[C@H]2C(=O)NCC(=O)N2[C@H]1c1cccc(OCCO)c1	2.15
Cc1ccc([C@H]2C(C(=O)O)=C[C@@H](C)N2S(=O)(=O)c2ccc(C)cc2)cc1	-0.464
O=C1OCC=C[C@H]2OC34C=CCN(c5ccc6ccccc6c5)C(=O)[C@H]3N(CCCO)C(=O)[C@@H]4[C@@H]12 (stereo partly specified)	0.501
COCCCNC(=O)[C@@]1(c2ccc([N+](=O)[O-])cc2)CC(=O)N(CC23CC4CC(CC(C4)C2)C3)[C@@H]1c1ccc(CO)cc1	-0.995
COCCOC(=O)N1C(=O)[C@@]2(c3cc(C#CC4=CCCCC4)ccc31)[C@H](C(=O)NC[C@H](O)c1ccccc1)[C@H]1C(=O)O[C@H](c3ccccc3)[C@H](c3ccccc3)N1[C@@H]2c1ccc(O)cc1	-0.144

Attention now turns to another entry.
# z-score of "COCCOC(=O)N1C(=O)[C@@]2(c3cc(C#CCC(C(=O)OC)C(=O)OC)ccc31)[C@H](c1ccccc1OCCO)N1[C@H](c3ccccc3)[C@H](c3ccccc3)OC(=O)[C@H]1[C@@H]2C(=O)N1CCc2cc(OC)c(OC)cc2C1" = 0.178
